Please go through the items and note down their melting point.

For the compound shown here, `Cc1oc(-c2ccc(-c3ccc(-c4nc(CC(=O)OCc5ccccc5)c(C)o4)cc3)cc2)nc1CC(=O)OCc1ccccc1` , give the reported melting point.
162 to 168 °C

For the compound shown here, `COC(=O)Cc1nc(-c2ccccc2)c2cc(Cl)ccc2n1` , give the reported melting point.
122 to 123 °C

For the compound shown here, CC(C)CC1(C(CCN2C(=O)c3cccc([N+](=O)[O-])c3C2=O)C(=O)NO)CCN(CCc2ccccc2)C1=O (stereo not given) , give the reported melting point.
136 to 138 °C

For the compound shown here, `Cc1sc(N)c(C(=O)c2ccc(Cl)cc2)c1CN1CCN(c2ccc(F)cc2)CC1` , give the reported melting point.
70 to 72 °C

For the compound shown here, `Cc1ccc(Oc2ccc(-n3cnnn3)cc2)c(O)c1` , give the reported melting point.
129 to 132 °C

For the compound shown here, `O=C(O)c1cnc2ccc(Cc3ccccc3)cc2c1` , give the reported melting point.
203 to 205 °C

For the compound shown here, `CCCN1CCN(c2cc(-c3ccc(F)cc3F)c3c(n2)CCCCCC3)CC1` , give the reported melting point.
108 to 109 °C

For the compound shown here, `COc1ccc(N)cc1C12CC3CC(CC(C3)C1)C2` , give the reported melting point.
140 to 141 °C

For the compound shown here, `COc1ccc(Cn2c(N)c(NC(=O)C(C)C)c(=O)[nH]c2=O)cc1OC` , give the reported melting point.
207 to 210 °C

For the compound shown here, `COc1ccc(CN2CCC(=C3c4ccc(Cl)cc4CCc4cccnc43)CC2)cn1` , give the reported melting point.
60.2 to 64.1 °C

For the compound shown here, CCCCCCCCc1ccc(C(O)CCCCCC(=O)OC)cc1 (stereo not given) , give the reported melting point.
49 to 50 °C

For the compound shown here, CCCCCNc1cccc2c1C(=O)N(C1CCC(=O)NC1=O)C2=O (stereo not given) , give the reported melting point.
141 to 143 °C

For the compound shown here, Cc1ccccc1OC(Cc1ccc(OCCN(C)c2nc3ccccc3o2)cc1)C(=O)O (stereo not given) , give the reported melting point.
142 to 143 °C

For the compound shown here, CCCCCCCCCCCCCCCCCCOc1cc(OCCCOc2ccc(S(C)=O)cc2)cc(C(=O)OC)c1 (stereo not given) , give the reported melting point.
86 to 88 °C

For the compound shown here, `COC(=O)CCN=c1sc2ccccc2s1` , give the reported melting point.
58 to 60 °C

For the compound shown here, `N=C(N)NC(=O)Cn1c(Cc2ccco2)ccc1-c1ccccc1` , give the reported melting point.
80 to 82 °C

For the compound shown here, `CCCSc1sc(C(=O)NC)c2c1-c1c(cnn1CC(F)(F)F)CC2` , give the reported melting point.
75 to 76 °C

For the compound shown here, COC(=O)C1Oc2ccc(C3CCCCC3)cc2C(C)(c2ccccc2)O1 (stereo not given) , give the reported melting point.
107 °C

For the compound shown here, Cc1c(C)c2c(c(C)c1NC(=O)CC(C)(C)C)C(c1cccc(C3OCCO3)c1)CO2 (stereo not given) , give the reported melting point.
168 to 169 °C

For the compound shown here, CCOC(=O)C1=C(C)NC(=S)N(C(=O)OC(C)C)C1c1cccc(Cl)c1Cl (stereo not given) , give the reported melting point.
157 to 159 °C

For the compound shown here, CC1(c2ccccc2)C(=O)Nc2cc(Cl)c(Cl)cc2C1=O (stereo not given) , give the reported melting point.
213 to 214 °C

For the compound shown here, `O=C(CCCl)c1ccc2c(c1)Cc1cc(C(=O)CCCl)ccc1S2` , give the reported melting point.
105 to 107 °C

For the compound shown here, `CNC(=O)c1ccccc1Nc1nc(Nc2ccc3c(c2)CCCC(=O)N3C)ncc1Cl` , give the reported melting point.
244 to 246 °C

For the compound shown here, `Oc1ccccc1Oc1ncc(Cl)cn1` , give the reported melting point.
131 to 139 °C

For the compound shown here, `Cc1cc(-c2cc3cc(OCCNC[C@H](O)COc4ccccc4F)ccc3o2)no1` , give the reported melting point.
118 to 121 °C
